System: CAKI-1 renal
Test Description: NCI-60 one-dose screen, 48 h (100 = growth as untreated, 0 = no growth, -100 = all killed)
Condition Label: 10 µM unless noted
Compounds without any hit were thinned out: in the full panel of roughly 83,000, 20% have a hit. Active and inactive are the calls of the source. The calls were made as follows: active = growth percent below 10; inactive = the rest.
Reported growth values for the following molecules.

Molecule | growth
CCCCCCCCCCCCC[C@H](O)C[C@H](O)[C@H](C)N | 110% [1.25 µM] (inactive)
N#CC(Cc1cccc2ccccc12)c1cc2ccccc2[nH]1 (stereo not given) | 73.7% (inactive)
COc1ccc2c(c1)c(C(=O)c1nc(-c3cn(C)c4ccccc34)no1)cn2C | 94.1% (inactive)
Cc1nn(-c2nc(-c3cc4ccccc4oc3=O)cs2)c(C)c1N=Nc1ccccc1 | 89.2% (inactive)
N=c1c2c(-c3ccccc3)c(-c3ccccc3)oc2ncn1NC(=O)c1cccnc1 | 93.8% (inactive)
